experiment: chemical genetic growth profiling, strain panel (AID 1159580);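 further: tested at 20 µM; growth read once vehicle control cultures reached saturation at 30 °C; 1 = growth at the plate median or of vehicle wells; lower values mean less growth of the strain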; settings: S. cerevisiae deletion strains, growth OD, locus YGL078C, strain dbp3, hits give low values
Hit rate of the full screen: of about 5,500 compounds, about 2,000 (36%) were called active. Roughly 18% stayed inconclusive and do not appear here. The list shows a part of the results.
Measured attribute: normalized growth
Keep the answer to the number alone.

Solved cases below.
Compound | normalized growth
Cc1cc(C)cc(OCC2CNC(=O)O2)c1 (stereo unspecified) | 1.01
CN(C)N=Nc1nc[nH]c1C(N)=O | 0.999
COc1cc([C@H]2Oc3cc([C@H]4Oc5cc(O)cc(O)c5C(=O)[C@@H]4O)ccc3O[C@@H]2CO)ccc1O | 0.965
CN(C)CCC(c1ccc(Br)cc1)c1ccccn1 (stereo unspecified) | 0.987
Cc1nc2sccn2c(=O)c1CCN1CCC(=C(c2ccc(F)cc2)c2ccc(F)cc2)CC1 | 1

# next compound below
normalized growth reading for COc1ccc(C(=O)CC(=O)c2ccc(C(C)(C)C)cc2)cc1 : 0.996

Measured values drawn from PubChem BioAssay AID1159580 for this set.
